Reported pIC50 values are given for each entry in this list.
molecular target: Human JNK 3 (Homo sapiens, UniProt P53779); construct: made in house; host or cells: Escherichia coli; assay: Determination of JNK 3 Inhibition; assay type: biochemical; conditions: 50% inhibitory concentration on the enzymatic activity of JNK; GST-JNK 3, substrate GST-c-Jun, 3.33 μM of ATP, 30 minutes
Sequence (P53779 whole entry): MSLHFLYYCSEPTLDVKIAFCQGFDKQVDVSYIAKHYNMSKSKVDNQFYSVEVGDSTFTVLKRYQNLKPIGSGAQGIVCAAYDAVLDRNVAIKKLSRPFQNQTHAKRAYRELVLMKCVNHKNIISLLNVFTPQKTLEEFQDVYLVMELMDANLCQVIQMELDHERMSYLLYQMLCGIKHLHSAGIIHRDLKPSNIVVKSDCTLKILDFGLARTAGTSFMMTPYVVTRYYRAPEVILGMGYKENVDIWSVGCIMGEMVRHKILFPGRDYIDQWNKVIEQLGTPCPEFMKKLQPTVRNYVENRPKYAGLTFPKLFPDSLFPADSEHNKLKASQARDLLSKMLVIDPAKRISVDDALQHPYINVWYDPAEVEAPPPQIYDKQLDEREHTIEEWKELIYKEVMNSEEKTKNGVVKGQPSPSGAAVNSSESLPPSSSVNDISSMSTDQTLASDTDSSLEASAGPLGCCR
Quick note: pIC50 values are minus log10 of concentrations in mol/L.

Query: # get_value(readout='pIC50', item= O=C(NC1CC1)c1ccc2[nH]nc(-c3cccc(F)c3)c2c1 [Example I-143] )
Result: 6.66

Query: # get_value(readout='pIC50', item= O=C(N[C@@H]1CCOC1=O)c1cc(F)c2[nH]nc(-c3ccc4ccccc4c3)c2c1 [Example II-259] )
Result: 6.83

Query: # get_value(readout='pIC50', item= CC(=O)c1cccc(-c2n[nH]c3ccc(C(=O)N[C@@H](C)C(N)=O)cc23)c1 [Example I-132] )
Result: 6.71

Query: # get_value(readout='pIC50', item= O=C(Nc1ccc2[nH]nc(-c3cc4ccccc4s3)c2c1)C1CCOC1 (stereo not drawn) [Example I-55] )
Result: 7.28

Query: # get_value(readout='pIC50', item= O=C(Nc1cc2c(-c3ccc4ccccc4c3)n[nH]c2cc1F)C1CC1 [Example II-184] )
Result: 7.07

Query: # get_value(readout='pIC50', item= COc1c(C(=O)NCC2CC2)ccc2[nH]nc(-c3cc4ccccc4o3)c12 [Example II-93] )
Result: 6.86

---

Observed IC50 for Human JNK 3 (Homo sapiens), reported per entry below.
// note: answer is a bare numeric in nM

The examples below pair each entry with its known result.
Query: # get_value(readout='IC50', item= O=C(Nc1ccc2[nH]nc(-c3cc4ccccc4o3)c2c1)c1ccco1 )
Result: 109

Query: # get_value(readout='IC50', item= COc1cccc(C(=O)NCc2cc3c(-c4ccc5ccccc5c4)n[nH]c3cc2F)c1 )
Result: 143

Query: # get_value(readout='IC50', item= O=C(Cc1cccs1)Nc1ccc2[nH]nc(-c3cccc(F)c3)c2c1 )
Result: 51

Next compound, please.
Query: # get_value(readout='IC50', item= O=C(Cc1cccs1)Nc1cc2c(-c3ccc4ccccc4c3)n[nH]c2cc1F )
Result: 194
